FYI, the data here is from patent US20260209365A1.

p-STAT6 inhibition (%), IL-4 induced, Ramos B cells, flow cytometry for assorted binders
Study system: T1, human γc on cells (KHYG-1, Ramos, HPB-ALL, Jurkat, PBMC) (human) (UniProt P31785)
T1 sequence (looked up): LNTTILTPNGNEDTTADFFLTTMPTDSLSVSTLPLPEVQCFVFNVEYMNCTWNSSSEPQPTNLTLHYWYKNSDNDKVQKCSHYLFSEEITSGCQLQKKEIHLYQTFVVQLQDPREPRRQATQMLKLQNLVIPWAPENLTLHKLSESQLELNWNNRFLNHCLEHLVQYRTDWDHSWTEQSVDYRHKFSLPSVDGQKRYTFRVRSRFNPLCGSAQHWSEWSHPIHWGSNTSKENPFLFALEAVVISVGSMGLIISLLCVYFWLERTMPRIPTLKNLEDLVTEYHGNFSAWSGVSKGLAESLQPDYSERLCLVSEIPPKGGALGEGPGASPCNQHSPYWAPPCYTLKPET
Measurement notes: cell-based or functional assay
Response body: numeric value in %, unit text excluded.

The examples below pair each entry with its known result.
Binder	Output unit	Meas value
SM-05I anti-γc ScFv (scFv, part only; not given: linker and E-tag, not shown: small tags and cut ends) scFv (part 1 of 2), part: QVQLQQSGAELAKPGASVKLSCKASGYTFTEYTMHWVKQSHGESLDWIGGIDPNTGGATYNQRFKGKATMTVDKSSSTAYMEFRSLTSEDSAVYYCARRRRYYGYALDNWGQGTSVTVSS scFv (part 2 of 2), part: DVLMTQTPLSLPVSLGDQASISCRSSQSIVHSNGNTYLEWYLQKPGQSPKLLIYKVSNRFSGVPDRFSGSGSGTDFTLKISRVEAEDLGVYYCFQDSHVPFTFGSGTKLEIKR	%	74.1
SM-05H anti-γc ScFv (scFv, part only; not given: linker and E-tag, not shown: small tags and cut ends) scFv (part 1 of 2), part: QVQLQQSGPELVKPGASMNIFCKTSGYTFTEYTMHWVKQSHGESLEWIGGIDPNTGGATYNQKFKGQATLTADKSSSTAYMELRSLTSEDSAVYYCARRRRYYGYALDYWGQGTSVTVSS scFv (part 2 of 2), part: DVLMTQTPLSLPVSLGDQASISCRSSQNIIHSNGNTYLEWYLQKPGQSPKLLIYKVSNRFSGVPDRFTGSGSGTDFTLKISRVEAEDLGVYFCSQSTHVPFTFGGGTKLEIKR	%	63.4

Task: What value of p-STAT6 inhibition (%), IL-4 induced, Ramos B cells, flow cytometry has been recorded for this entry: SM-05E anti-γc ScFv (scFv, part only; not given: linker and E-tag, not shown: small tags and cut ends) scFv (part 1 of 2), part: EVHLQQSGPELVKPGASVKIFCKTSGYTFTEYTMHWVKQSHGESLEWIGGIDPNTGGVTYNQKFKGKATLTADKSSSTAYMELRSLTSEDSAVYYCARRRRYYGYALDYWGQGTSVTVSS scFv (part 2 of 2), part: DVLMTQTPLSLPVSLGDQASISCRSSQSIVHSNGNTYLEWYLQKPGQSPKLLIYKVSNRFSGVPDRFSGSGSGTDFTLKISSVEAEDLGVYFCSQSTHVPFMFGSGTKLEIKR
Output: 85.6
